Where do the numbers come from? From PubChem BioAssay (NCI).

# System: HOP-62 NSCLC
# TEST: NCI-60 one-dose screen, 48 h
# CONDITION_LABEL: 10 µM unless noted
The panel holds about 83,000 compounds, 20% with a hit somewhere; the sample as a whole holds those more often. Activity calls are given as the source filed them. Rule for the calls: active = growth percent below 10; inactive = the rest.
Give your call using only these classes: 1.0 for active, 0.0 for inactive

Solved entries (count: 3):
MOLECULE	CAT
COc1cccc2c(=O)c3c(sc12)c(N1CCNCC1)nc1ccccc13	0.0
O=C(Nc1ccc(Cl)cc1F)c1cc(Cl)ccc1O	1.0
COc1cc(C(=O)/C=C/c2c(Cl)nc3sccn23)cc(OC)c1OC	0.0

Please state the recorded outcome for this molecule: Cc1ccc(C2CC(c3ccc(Nc4ccnc5cc(Cl)ccc45)cc3)=NN2C=O)cc1 (stereo unspecified)
0.0

Please state the recorded outcome for this molecule: COc1ccc(OC)c(/C=C/C(=O)N/N=C/c2ccc(Cl)cc2)c1
0.0

Please state the recorded outcome for this molecule: COc1nc2ccc(C)cc2cc1-c1nc2c(cnn2-c2ccc(Br)cc2)c(=O)[nH]1
0.0

Please state the recorded outcome for this molecule: c1ccc(Nc2cc(-c3cccnc3)[nH]n2)cc1
0.0

Please state the recorded outcome for this molecule: O=C(Cc1ccc2c(c1)OCCO2)Nc1nc2ccc(F)cc2s1
0.0

Please state the recorded outcome for this molecule: COc1ccc(/C=N/Nc2cc(=O)[nH]c3ccc(C)cc23)cc1
0.0

Please state the recorded outcome for this molecule: c1ccc(-c2nc3sc(-c4ccccc4)cn3n2)cc1
0.0

Please state the recorded outcome for this molecule: CN(C)c1ccc(/C=N\Nc2cc(=O)[nH]c3ccc(Cl)cc23)cc1
0.0

Please state the recorded outcome for this molecule: C#Cc1cccc(NC(=O)Nc2ccccc2NC(=O)CCl)c1
1.0
